- subject_of_test: T1, human TMEM106B (human, UniProt Q9NUM4 2-274)
- T1 construct: full-length, transiently expressed on HEK293 cells, or natively expressed on HeLa, U251 and A549 cells (the cell is named under assay); also the source of the Pepscan peptides; also called huTMEM106B; huTMEM
- test: FACS HEK+huTMEM 10 ug/ml;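 note: flow cytometric binding of purified mouse IgG antibodies to HEK293 cells transiently expressing human TMEM106B, read as median fluorescence intensity on live cells with propidium iodide-positive cells excluded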
endpoint_name: MFI (MFI)
All answers are understood in MFI, so give the number only.

INPUT: # MFI lookup, item TM-32 (antibody, V domains shown) VH: EVQLQQSGAELVRPGASVRLSCIASGFNIKDYYMYWVKQRPEQGLEWIGRIDPEDGDTEYVPKFQGKATMTADTSSNTAYLQLSSLTSEDIGVYYCTTRTWDLYYAVDNWGQGTSVTVSS VL: DVLMTQTPLSLPVSLGDQASISCRSSQNIVHSNGNTYLEWYLQKPGQSPKLLIDKVSNRFSGVPDRFSGSGSGTDFTLKISRVEAEDLGIYYCFQGSHVPFTFGSGTKLEIK
OUTPUT: 61100

INPUT: Field request: MFI | item: TM-42 (antibody, V domains shown) VH: QVQLQQSGAELAKPGASVKLSCKASGYTFTNYWMHWVKKRPGQGLEWIGYINPSSGYTKYNQKFKDKATLTADKSSNTAYMQLSSLTYEDSAVYYCTREGGSISDWYFDVWGTGTTVTVSS VL: DIVMTQAAPSLPVTPGESVSISCRSSKSLLHSNGNTYLYWFLQRPGQSPQLLIYRMSNLASGVPDRFSGSGSGTAFTLRISRVEAEDVGVYYCMQHLEYPYTFGGGTKLEIK
OUTPUT: 60100

In the following, a different binder is considered.
INPUT: Form field: reported MFI of TM-30 (antibody, V domains shown, mouse IgG (hybridoma)) VH: QVQLQQSGPELVKPGASVKLSCKASDNTFTNYDVNWVRQRPGQGLEWIGWIYPRDGTTIYNEKFKGRATLTVDTSSSTAYMELHSLTSEDSAVFFCARTLPQAMDYWGQGTSVTVSS VL: DVLMTQSPLSLPVSLGDQVSISCRSSQTIVHRNGNTYLEWYLQKPGQSPKLLIYKVSNRFSGVPDRFSGSGSGTDFTLKISRVEAEDLGVYYCFQGSHLPWTFGGGTKLEIK
OUTPUT: 61500
